# test description: Tissue distribution of RPM constituents after oral RPM extract
# experimental setup: both, Sprague-Dawley, rat, kidney, po, 18 g/kg
readout type: AUC(0-t) (µM·h)
# output: bare number, implied unit µM·h

> print(dat)
                                   molecule  observed
1  Cc1cc(O)c2c(c1)C(=O)c1cc(O)cc(O)c1C2=O [Emodin, emodin]      2.83

Briefly, AUC(0-t) measured for O=C1c2cccc(O)c2C(=O)c2c(O)cc(CO)cc21 [Aloe-emodin, aloe-emodin] : 0.00977

----------
# test description: Plasma pharmacokinetics of RPM constituents after oral RPM extract
# experimental setup: Sprague-Dawley, rat, plasma, po, 18 g/kg
# key: entry, value: half-life
Your answer should be a plain number; it is taken to be in h.

Past entries and their recorded results:
> print(dat)
                                 compound  readout.type  observed
1  COc1cc(O)cc2c1C(=O)c1c(O)cc(CO)cc1C2=O     half-life      14.4
2  Cc1cc(O)c2c(c1)C(=O)c1cc(O)cc(O)c1C2=O     half-life      9.44
3    O=C1c2cccc(O)c2C(=O)c2c(O)cc(CO)cc21     half-life      5.09

Looking up COc1cc(O[C@@H]2O[C@H](CO)[C@@H](O)[C@H](O)[C@H]2O)c2c(c1)C(=O)c1cc(C)cc(O)c1C2=O [PG, physcion-8-O-β-D-glucoside] , I found its half-life recorded as 7.09

The recorded half-life for COc1cc(O[C@@H]2O[C@H](CO)[C@@H](O)[C@H](O)[C@H]2O)c2c(O)c(C(C)=O)c(C)cc2c1 [TG, torachrysone-8-O-glucoside] is 1.9

# half-life (compound: OC[C@H]1O[C@@H](Oc2c(O)cc(O)cc2/C=C/c2ccc(O)cc2)[C@H](O)[C@@H](O)[C@@H]1O ) is 6.54

----------
# test description: Excretion into urine and feces and mass balance after oral RPM extract
# experimental setup: Sprague-Dawley, rat, urine and feces, po, Recovery in urine and feces (%), mass balance; 18 g/kg RPM extract p.o.; urine plus feces, 0–72 h
# Lookup of reported dose excreted keyed by entry
Number only, in %; omit the unit.

Recorded results for 3 compounds are shown here.
> print(dat)
                                   compound   readout.type  observed
1    Cc1cc(O)c2c(c1)C(=O)c1cc(O)cc(O)c1C2=O  dose excreted      32.5
2  OC[C@H]1O[C@@H](Oc2c(O)cc(O)cc2/C=C/c2ccc(O)cc2)[C@H](O)[C@@H](O)[C@@H]1O  dose excreted      38.9
3      O=C1c2cccc(O)c2C(=O)c2c(O)cc(CO)cc21  dose excreted      31.4

Turning now to a further record.
Reported dose excreted ( COc1cc(O[C@@H]2O[C@H](CO)[C@@H](O)[C@H](O)[C@H]2O)c2c(O)c(C(C)=O)c(C)cc2c1 [TG, torachrysone-8-O-glucoside] ) = 45.5

----------
# test description: Plasma pharmacokinetics of RPM constituents after oral RPM extract
# experimental setup: Sprague-Dawley, rat, plasma, po, 18 g/kg
Listed here: items and their measured Cmax.

> print(dat)
                                   compound  observed
1  COc1cc(O[C@@H]2O[C@H](CO)[C@@H](O)[C@H](O)[C@H]2O)c2c(c1)C(=O)c1cc(C)cc(O)c1C2=O [PG, physcion-8-O-β-D-glucoside]   34.2 nM
2    COc1cc(O)cc2c1C(=O)c1c(O)cc(CO)cc1C2=O   3.54 nM

Entry under test: COc1cc(O[C@@H]2O[C@H](CO)[C@@H](O)[C@H](O)[C@H]2O)c2c(O)c(C(C)=O)c(C)cc2c1 [TG, torachrysone-8-O-glucoside] . Its Cmax was 37.3 nM

For record Cc1cc(O)c2c(c1)C(=O)c1cccc(O)c1C2=O the listed Cmax is 7.87 nM

The measured Cmax associated with Cc1cc(O)c2c(c1)C(=O)c1cc(O)cc(O)c1C2=O reads 491 nM

The value of Cmax measured for the compound O=C1c2cccc(O)c2C(=O)c2c(O)cc(CO)cc21 turned out to be 31.7 nM

Please fill in: Cmax reported for OC[C@H]1O[C@@H](Oc2c(O)cc(O)cc2/C=C/c2ccc(O)cc2)[C@H](O)[C@@H](O)[C@@H]1O = 3260 nM
